experiment: chemical genetic growth profiling, strain panel (AID 1159580);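 further: tested at 20 µM; growth read once vehicle control cultures reached saturation at 30 °C; lower values mean less growth of the strain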; conditions: S. cerevisiae deletion strains, growth OD, locus YBR171W, strain sec66
Hit rate of the full screen: of about 5,500 compounds, about 2,000 (36%) were called active. Another 18% or so got no clear call; they are omitted. No stated cut-off is given here; in the data, active means normalized growth mostly below about 0.91 (no sharp cut-off); inconclusive means no clear call, values can overlap the other calls; inactive means mostly above about 0.92. This is one part of the list.
Respond using exactly one of the listed classes: True (active), False (inactive)

Illustrative cases are given below, each with its answer.
MOLECULE	ASSIGNED CLASS
C[N+](C)(C)CC(=O)[O-]	False
CC1(C)C2CC[C@]3(C)C(C(=O)C=C4[C@H]5C[C@@](C)(C(=O)O)CC[C@]5(C)CC[C@]43C)[C@@]2(C)CC[C@@H]1O (stereo not given in full)	False
CCCCOc1ccc(OCCCN2CCOCC2)cc1	False

Record lookup: outcome of this test for COc1ccc(-c2coc3c(O)c(OC)ccc3c2=O)cc1 ?
False

What do you have for CC(C)[N+](C)(CCOC(=O)C1c2ccccc2Oc2ccccc21)C(C)C ?
False

What do you have for CC1(C)C2CC[C@]3(C)C(C(=O)C=C4[C@@H]5C[C@@](C)(C(=O)O)CC[C@]5(C)CC[C@]43C)[C@@]2(C)CC[C@@H]1OC(=O)CCC(=O)O (stereo not given in full) ?
False

What do you have for COc1c(O)cc2oc3cc(O)c(CC=C(C)C)c(O)c3c(=O)c2c1CC=C(C)C ?
False

What do you have for CCCCCCCC/C=C/CCCCCCCCOP(=O)([O-])OCC[N+](C)(C)C ?
True

What do you have for O=C(/C=C/C=C/c1ccc2c(c1)OCO2)N1CCCCC1 ?
False

What do you have for COc1ccc2c(c1)OC[C@@H](Cc1ccc(OC)c(OC)c1)[C@@H]2O ?
False
